Cited source: ChEMBL document CHEMBL4507327

Give pIC50 for every item shown.
target: eIF-2-alpha kinase GCN2 (Homo sapiens)
Sequence (Q9P2K8 whole entry): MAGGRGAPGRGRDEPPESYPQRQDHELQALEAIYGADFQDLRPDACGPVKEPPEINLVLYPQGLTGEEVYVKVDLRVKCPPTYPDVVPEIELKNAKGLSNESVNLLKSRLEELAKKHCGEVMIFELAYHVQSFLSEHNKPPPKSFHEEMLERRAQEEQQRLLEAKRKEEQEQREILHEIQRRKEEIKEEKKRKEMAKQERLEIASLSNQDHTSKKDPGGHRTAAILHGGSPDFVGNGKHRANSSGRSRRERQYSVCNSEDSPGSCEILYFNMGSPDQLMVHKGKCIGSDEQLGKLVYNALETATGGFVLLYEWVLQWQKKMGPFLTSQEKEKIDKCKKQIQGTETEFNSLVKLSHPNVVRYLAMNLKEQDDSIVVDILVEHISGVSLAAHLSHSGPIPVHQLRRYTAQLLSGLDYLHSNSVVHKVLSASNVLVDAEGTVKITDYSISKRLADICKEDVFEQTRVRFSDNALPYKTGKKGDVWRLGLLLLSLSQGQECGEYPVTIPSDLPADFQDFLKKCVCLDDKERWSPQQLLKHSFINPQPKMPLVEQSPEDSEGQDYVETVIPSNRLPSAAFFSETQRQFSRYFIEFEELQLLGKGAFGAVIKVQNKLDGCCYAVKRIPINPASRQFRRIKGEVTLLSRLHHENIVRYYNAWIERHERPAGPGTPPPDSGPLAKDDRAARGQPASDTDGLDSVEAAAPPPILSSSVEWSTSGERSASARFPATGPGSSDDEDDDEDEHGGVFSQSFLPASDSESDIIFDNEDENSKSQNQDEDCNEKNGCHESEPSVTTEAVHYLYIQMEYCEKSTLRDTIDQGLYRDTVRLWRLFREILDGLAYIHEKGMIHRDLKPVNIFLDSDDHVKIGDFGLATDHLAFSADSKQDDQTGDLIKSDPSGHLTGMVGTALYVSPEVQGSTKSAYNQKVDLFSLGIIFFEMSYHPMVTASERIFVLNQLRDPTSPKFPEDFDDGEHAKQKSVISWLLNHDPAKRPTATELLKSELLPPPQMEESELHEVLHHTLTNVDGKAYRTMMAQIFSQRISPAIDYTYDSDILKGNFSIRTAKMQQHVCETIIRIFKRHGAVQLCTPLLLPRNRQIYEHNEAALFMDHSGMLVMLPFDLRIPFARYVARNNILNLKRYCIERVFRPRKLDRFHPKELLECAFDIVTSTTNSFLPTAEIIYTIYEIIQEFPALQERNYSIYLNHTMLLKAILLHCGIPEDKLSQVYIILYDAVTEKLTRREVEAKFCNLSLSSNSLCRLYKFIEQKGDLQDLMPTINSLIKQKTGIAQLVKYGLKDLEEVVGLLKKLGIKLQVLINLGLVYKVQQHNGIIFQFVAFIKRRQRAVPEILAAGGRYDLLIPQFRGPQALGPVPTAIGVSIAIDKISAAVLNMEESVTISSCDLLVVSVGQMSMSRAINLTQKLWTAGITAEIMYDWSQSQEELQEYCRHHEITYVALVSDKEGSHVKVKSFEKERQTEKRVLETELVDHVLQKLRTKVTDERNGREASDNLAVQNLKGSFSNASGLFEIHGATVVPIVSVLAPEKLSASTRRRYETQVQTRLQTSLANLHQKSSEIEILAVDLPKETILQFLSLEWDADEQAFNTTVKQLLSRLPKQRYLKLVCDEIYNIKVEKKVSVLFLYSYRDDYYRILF
Give bare numbers, as −log10 of the molar value.

compound: CN1C(=O)[C@@H](N2CCc3cn(Cc4ccccc4)nc3C2=O)COc2ccccc21
target_of_assay: eIF-2-alpha kinase GCN2 (Homo sapiens)
pIC50: 6.00

Q) For the record CN1C(=O)[C@@H](N2CCc3cn(CC4CCS(=O)(=O)CC4)nc3C2=O)COc2ccccc21 [TP-030n] , what value of pIC50 is listed for eIF-2-alpha kinase GCN2 (Homo sapiens)?
A) 6.00

---

// endpoint pIC50 / system Receptor-type tyrosine-protein kinase FLT3 (Homo sapiens)
Give bare numbers, as −log10 of the molar value.

molecule: CN1C(=O)[C@@H](N2CCc3cn(Cc4ccccc4)nc3C2=O)COc2ccccc21 [TP-030-1]
pIC50: 6.00

Now for the molecule whose pIC50 we want.
Q) pIC50 for CN1C(=O)[C@@H](N2CCc3cn(CC4CCS(=O)(=O)CC4)nc3C2=O)COc2ccccc21 [TP-030n] ?
A) 6.00

---

molecular target: Homeodomain-interacting protein kinase 4 (Homo sapiens, UniProt Q8NE63)
Sequence (Q8NE63 whole entry): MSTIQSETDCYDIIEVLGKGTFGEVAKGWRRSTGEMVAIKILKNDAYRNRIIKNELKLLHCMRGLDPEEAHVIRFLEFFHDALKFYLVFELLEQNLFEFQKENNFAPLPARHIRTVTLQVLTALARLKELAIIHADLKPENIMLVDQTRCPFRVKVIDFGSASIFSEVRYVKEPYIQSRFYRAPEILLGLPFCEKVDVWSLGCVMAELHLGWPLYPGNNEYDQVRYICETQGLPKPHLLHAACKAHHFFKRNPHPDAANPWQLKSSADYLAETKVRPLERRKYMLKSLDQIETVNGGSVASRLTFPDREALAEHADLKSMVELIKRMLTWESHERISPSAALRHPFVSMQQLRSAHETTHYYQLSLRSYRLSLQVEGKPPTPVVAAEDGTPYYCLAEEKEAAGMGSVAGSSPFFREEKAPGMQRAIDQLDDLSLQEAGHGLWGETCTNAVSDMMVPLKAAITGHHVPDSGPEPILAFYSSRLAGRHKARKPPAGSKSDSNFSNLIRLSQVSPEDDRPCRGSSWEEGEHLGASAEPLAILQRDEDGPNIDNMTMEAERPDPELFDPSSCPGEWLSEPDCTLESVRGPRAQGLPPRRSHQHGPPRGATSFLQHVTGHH
readout_name: pIC50
One number for each entry, as −log10 of the molar value.

compound: CN1C(=O)[C@@H](N2CCc3cn(CC4CCS(=O)(=O)CC4)nc3C2=O)COc2ccccc21 [TP-030n]
readout_name: pIC50
measured: 6.00

Now for the compound whose pIC50 we want.
Q) pIC50 for CN1C(=O)[C@@H](N2CCc3cn(Cc4ccccc4)nc3C2=O)COc2ccccc21 [TP-030-1] ?
A) 6.00

---

molecular target: cAMP-dependent protein kinase catalytic subunit PRKX (Homo sapiens, UniProt P51817); experiment: PRKX(PRKXLGH5) Takeda global kinase panel
Sequence (P51817 whole entry): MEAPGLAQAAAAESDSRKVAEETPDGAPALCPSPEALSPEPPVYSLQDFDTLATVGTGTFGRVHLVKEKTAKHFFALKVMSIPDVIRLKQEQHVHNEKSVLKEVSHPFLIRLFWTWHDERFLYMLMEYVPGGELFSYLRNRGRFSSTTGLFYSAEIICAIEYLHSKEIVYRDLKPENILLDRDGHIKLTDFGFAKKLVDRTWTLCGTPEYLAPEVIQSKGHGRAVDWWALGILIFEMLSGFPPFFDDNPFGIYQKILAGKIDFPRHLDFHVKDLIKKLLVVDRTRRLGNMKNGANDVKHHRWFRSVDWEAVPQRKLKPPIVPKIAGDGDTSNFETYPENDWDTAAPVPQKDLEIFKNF
readout_name: IC50 (nM)
Numbers only, in nM.

molecule: CN1C(=O)[C@@H](N2CCc3cn(Cc4ccccc4)nc3C2=O)COc2ccccc21
target_of_assay: cAMP-dependent protein kinase catalytic subunit PRKX (Homo sapiens, UniProt P51817)
IC50 (nM): 1000

Q) IC50 for CN1C(=O)[C@@H](N2CCc3cn(CC4CCS(=O)(=O)CC4)nc3C2=O)COc2ccccc21 [TP-030n] ?
A) 1000

---

Give IC50 for every item shown.
target: Tyrosine-protein kinase ABL2 (Homo sapiens, UniProt P42684)
Sequence (P42684 whole entry): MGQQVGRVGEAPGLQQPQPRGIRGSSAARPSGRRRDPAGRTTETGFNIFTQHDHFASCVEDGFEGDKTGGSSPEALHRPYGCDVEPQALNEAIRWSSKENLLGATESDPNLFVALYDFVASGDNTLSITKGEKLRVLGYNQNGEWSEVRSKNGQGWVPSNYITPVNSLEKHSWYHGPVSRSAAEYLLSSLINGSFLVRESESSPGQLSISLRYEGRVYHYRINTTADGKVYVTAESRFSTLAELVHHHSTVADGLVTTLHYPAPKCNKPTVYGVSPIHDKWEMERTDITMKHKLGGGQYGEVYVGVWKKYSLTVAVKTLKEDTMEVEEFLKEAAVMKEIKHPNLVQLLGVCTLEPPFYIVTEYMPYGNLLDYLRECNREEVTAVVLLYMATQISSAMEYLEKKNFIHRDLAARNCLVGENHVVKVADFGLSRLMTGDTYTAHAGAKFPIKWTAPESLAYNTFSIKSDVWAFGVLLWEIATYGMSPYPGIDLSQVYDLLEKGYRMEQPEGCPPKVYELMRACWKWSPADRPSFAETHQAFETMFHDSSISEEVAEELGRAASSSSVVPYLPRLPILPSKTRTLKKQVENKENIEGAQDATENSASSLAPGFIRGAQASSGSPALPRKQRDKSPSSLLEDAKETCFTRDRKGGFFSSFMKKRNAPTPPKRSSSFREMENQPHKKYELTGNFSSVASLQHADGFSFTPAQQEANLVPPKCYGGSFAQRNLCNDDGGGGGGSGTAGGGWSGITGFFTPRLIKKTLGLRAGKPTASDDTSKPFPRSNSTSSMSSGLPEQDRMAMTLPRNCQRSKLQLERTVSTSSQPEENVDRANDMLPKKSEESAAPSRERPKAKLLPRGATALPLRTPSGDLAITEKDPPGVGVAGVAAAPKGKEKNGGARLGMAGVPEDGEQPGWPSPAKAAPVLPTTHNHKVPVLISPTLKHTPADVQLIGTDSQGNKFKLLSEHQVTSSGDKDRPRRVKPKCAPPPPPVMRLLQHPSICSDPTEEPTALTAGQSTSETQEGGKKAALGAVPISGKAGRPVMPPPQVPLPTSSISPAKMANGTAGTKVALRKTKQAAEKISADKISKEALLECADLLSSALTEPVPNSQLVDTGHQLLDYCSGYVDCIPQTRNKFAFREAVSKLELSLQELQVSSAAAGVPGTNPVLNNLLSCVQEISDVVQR

compound: CN1C(=O)[C@@H](N2CCc3cn(Cc4ccccc4)nc3C2=O)COc2ccccc21
readout_name: IC50
measured: 1000 nM

Q) IC50 for CN1C(=O)[C@@H](N2CCc3cn(CC4CCS(=O)(=O)CC4)nc3C2=O)COc2ccccc21 [TP-030n] ?
A) 1000 nM

---

Molecular target: Tyrosine-protein kinase Mer (Homo sapiens)
Sequence (Q12866 whole entry): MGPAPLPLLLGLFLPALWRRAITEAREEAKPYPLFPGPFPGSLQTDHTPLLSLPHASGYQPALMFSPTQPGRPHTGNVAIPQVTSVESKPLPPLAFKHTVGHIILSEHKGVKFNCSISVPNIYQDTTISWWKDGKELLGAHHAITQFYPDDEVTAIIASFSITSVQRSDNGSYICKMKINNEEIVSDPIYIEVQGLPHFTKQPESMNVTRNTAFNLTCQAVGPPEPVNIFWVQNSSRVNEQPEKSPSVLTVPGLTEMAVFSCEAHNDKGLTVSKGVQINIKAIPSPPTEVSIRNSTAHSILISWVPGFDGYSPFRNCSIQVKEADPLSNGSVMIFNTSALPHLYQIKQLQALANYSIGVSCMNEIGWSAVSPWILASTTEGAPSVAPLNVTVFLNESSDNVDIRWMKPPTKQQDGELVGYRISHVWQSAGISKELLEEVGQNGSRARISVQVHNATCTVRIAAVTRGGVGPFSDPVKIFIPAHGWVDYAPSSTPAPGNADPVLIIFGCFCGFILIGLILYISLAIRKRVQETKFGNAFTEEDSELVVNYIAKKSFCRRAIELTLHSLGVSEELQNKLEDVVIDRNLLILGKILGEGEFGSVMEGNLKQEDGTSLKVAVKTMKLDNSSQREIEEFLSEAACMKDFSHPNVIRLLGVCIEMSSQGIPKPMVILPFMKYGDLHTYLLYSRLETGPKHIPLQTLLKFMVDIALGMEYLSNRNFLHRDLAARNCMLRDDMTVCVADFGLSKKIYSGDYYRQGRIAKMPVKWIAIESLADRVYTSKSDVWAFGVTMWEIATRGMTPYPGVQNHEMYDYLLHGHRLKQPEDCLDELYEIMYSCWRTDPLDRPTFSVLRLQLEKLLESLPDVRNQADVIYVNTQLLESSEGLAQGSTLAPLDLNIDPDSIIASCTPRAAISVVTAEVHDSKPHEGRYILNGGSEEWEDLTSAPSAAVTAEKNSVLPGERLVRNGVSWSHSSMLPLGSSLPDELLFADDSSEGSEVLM
Give pIC50 for every item shown.
Give bare numbers, as −log10 of the molar value.

molecule: CN1C(=O)[C@@H](N2CCc3cn(CC4CCS(=O)(=O)CC4)nc3C2=O)COc2ccccc21 [TP-030n]
measured: 6.00

Now for the molecule whose pIC50 we want.
Q) pIC50 for CN1C(=O)[C@@H](N2CCc3cn(Cc4ccccc4)nc3C2=O)COc2ccccc21 [TP-030-1] ?
A) 6.00

---

target: Mitogen-activated protein kinase 9 (Homo sapiens, UniProt P45984); experiment: JNK2(MAP9LGF1) Takeda global kinase panel
Sequence (P45984 whole entry): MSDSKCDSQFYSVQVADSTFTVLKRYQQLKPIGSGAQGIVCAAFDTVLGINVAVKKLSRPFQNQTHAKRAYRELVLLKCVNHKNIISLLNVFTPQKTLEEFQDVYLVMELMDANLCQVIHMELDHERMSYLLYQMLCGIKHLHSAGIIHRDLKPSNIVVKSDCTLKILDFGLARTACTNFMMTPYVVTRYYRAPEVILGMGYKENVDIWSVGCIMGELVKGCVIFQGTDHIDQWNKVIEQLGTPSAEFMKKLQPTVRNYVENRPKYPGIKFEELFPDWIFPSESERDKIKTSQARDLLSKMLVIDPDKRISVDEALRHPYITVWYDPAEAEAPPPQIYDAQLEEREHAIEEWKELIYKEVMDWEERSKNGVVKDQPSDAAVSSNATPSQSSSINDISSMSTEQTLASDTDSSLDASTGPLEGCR
readout_name: pIC50
Answers are plain numbers, as −log10 of the molar value.

compound: CN1C(=O)[C@@H](N2CCc3cn(CC4CCS(=O)(=O)CC4)nc3C2=O)COc2ccccc21 [TP-030n]
measured: 6.00

Now for the compound whose pIC50 we want.
Q) For the record CN1C(=O)[C@@H](N2CCc3cn(Cc4ccccc4)nc3C2=O)COc2ccccc21 , what value of pIC50 is listed for Mitogen-activated protein kinase 9 (Homo sapiens, UniProt P45984)?
A) 6.00

---

target: MAP kinase-activated protein kinase 2 (Homo sapiens, UniProt P49137); assay: MAPKAPK2(MPK2LGRH) Takeda global kinase panel
Sequence (P49137 whole entry): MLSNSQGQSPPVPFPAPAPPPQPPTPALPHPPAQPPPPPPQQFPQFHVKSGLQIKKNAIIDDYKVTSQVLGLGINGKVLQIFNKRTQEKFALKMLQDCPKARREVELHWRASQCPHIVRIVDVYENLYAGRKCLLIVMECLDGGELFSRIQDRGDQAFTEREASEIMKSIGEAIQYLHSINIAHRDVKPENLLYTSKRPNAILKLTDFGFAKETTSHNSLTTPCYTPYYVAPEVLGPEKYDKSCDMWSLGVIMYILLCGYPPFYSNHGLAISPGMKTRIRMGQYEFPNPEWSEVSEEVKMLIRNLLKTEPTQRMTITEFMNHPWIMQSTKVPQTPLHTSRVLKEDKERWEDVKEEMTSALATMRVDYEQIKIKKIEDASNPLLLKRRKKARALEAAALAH
readout_name: IC50 (nM)
Answers are plain numbers, in nM.

Q) IC50 for CN1C(=O)[C@@H](N2CCc3cn(CC4CCS(=O)(=O)CC4)nc3C2=O)COc2ccccc21 [TP-030n] ?
A) 1000

---

Give pIC50 for every item shown.
Target: Casein kinase I isoform alpha-like (Homo sapiens, UniProt Q8N752)
Sequence (Q8N752 whole entry): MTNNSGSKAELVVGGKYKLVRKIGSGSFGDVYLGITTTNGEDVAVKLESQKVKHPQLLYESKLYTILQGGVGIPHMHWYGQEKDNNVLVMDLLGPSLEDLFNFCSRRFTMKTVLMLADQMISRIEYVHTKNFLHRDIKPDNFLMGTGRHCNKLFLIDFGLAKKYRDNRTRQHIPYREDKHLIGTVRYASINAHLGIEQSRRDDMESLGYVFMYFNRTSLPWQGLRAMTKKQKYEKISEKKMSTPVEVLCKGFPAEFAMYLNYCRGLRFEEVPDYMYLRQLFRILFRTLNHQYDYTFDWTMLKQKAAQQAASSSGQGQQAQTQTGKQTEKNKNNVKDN
Test: CK1alpha2(C1ALLGI5) Takeda global kinase panel
Give bare numbers, as −log10 of the molar value.

compound: CN1C(=O)[C@@H](N2CCc3cn(CC4CCS(=O)(=O)CC4)nc3C2=O)COc2ccccc21 [TP-030n]
target_of_assay: Casein kinase I isoform alpha-like (Homo sapiens, UniProt Q8N752)
pIC50: 6.00

Now for the compound whose pIC50 we want.
Q) pIC50 for CN1C(=O)[C@@H](N2CCc3cn(Cc4ccccc4)nc3C2=O)COc2ccccc21 [TP-030-1] ?
A) 6.00

---

Give IC50 for every item shown.
Target: Serine/threonine-protein kinase D3 (Homo sapiens, UniProt O94806)
Sequence (O94806 whole entry): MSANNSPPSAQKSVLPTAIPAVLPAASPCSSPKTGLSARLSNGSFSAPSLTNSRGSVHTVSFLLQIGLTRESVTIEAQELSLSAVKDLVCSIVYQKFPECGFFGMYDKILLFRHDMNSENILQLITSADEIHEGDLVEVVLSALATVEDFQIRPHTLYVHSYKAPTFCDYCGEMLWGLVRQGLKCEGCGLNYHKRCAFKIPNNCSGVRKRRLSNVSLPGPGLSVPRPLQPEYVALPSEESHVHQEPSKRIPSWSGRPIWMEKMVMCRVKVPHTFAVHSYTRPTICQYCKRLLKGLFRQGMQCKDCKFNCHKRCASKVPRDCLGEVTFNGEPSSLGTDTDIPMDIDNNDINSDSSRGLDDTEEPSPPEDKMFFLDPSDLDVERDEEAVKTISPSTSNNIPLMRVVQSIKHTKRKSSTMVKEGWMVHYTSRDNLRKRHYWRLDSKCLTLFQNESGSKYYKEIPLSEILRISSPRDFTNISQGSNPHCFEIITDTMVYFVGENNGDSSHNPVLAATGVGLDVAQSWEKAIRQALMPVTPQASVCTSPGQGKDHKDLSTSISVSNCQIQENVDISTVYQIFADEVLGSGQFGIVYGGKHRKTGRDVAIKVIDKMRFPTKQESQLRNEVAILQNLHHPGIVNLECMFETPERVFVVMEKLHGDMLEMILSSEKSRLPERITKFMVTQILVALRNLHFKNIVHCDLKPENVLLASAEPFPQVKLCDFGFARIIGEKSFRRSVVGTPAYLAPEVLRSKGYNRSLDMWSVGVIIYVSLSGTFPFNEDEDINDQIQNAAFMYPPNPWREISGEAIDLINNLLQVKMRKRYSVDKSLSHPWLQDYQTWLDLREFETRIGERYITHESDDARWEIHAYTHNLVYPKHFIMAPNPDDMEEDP
Experiment: PKD3(PRD3LGG5) Takeda global kinase panel
Provide the measurement as a number trailed by its unit.

molecule: CN1C(=O)[C@@H](N2CCc3cn(Cc4ccccc4)nc3C2=O)COc2ccccc21
measured: 1000 nM

Q) For the record CN1C(=O)[C@@H](N2CCc3cn(CC4CCS(=O)(=O)CC4)nc3C2=O)COc2ccccc21 [TP-030n] , what value of IC50 is listed for Serine/threonine-protein kinase D3 (Homo sapiens, UniProt O94806)?
A) 1000 nM
